Assay target: 3-keto-steroid reductase/17-beta-hydroxysteroid dehydrogenase 7 (Homo sapiens) (UniProt P56937)
Sequence (P56937 whole entry): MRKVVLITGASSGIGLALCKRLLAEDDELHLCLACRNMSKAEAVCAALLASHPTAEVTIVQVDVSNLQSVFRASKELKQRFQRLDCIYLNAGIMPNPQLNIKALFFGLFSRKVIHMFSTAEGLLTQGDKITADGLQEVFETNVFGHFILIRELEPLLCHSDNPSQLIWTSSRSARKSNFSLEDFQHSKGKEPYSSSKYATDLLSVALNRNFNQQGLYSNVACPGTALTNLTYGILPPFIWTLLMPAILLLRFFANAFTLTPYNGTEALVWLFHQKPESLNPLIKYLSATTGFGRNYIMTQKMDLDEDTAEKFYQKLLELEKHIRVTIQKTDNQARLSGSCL
Assay conditions: HEK293, at 3 µM
Description: Inhibition of human 17beta-HSD7 expressed in HEK293 cells assessed as inhibition of reduction of [14C]estrone into [14C]estradiol at 3 uM after 7 hrs
Measured property: inhibition (%)
Note: unit % is implicit; provide only the numeric part.

Substance smiles: C[C@]12CC[C@](O)(CCc3ccccc3)C[C@@H]1CC[C@@H]1[C@@H]2CC[C@]2(C)C(=O)CC[C@@H]12
inhibition / %: 17.4

Substance smiles: CN1C(=O)CC[C@]2(C)[C@H]3CC[C@]4(C)[C@@H](Nc5ccc([N+](=O)[O-])c(C(F)(F)F)c5)CC[C@H]4[C@@H]3CC[C@@H]12
inhibition / %: 100

Substance smiles: O=c1cc(-c2ccccc2)oc2cc(O)cc(O)c12
inhibition / %: 5.1

# ---- query compound ----
The reported value for CC1(C)CC[C@@]2(CC[C@H]3[C@@H]4CCc5cc(C(=O)Oc6ccccc6)ccc5[C@H]4CC[C@@]32C)OC1=O in terms of inhibition is 28.6

###

Assay target: 3-keto-steroid reductase/17-beta-hydroxysteroid dehydrogenase 7 (Homo sapiens)
Assay conditions: HEK293, at 0.3 µM
Description: Inhibition of human 17beta-HSD7 expressed in HEK293 cells assessed as inhibition of reduction of [14C]estrone into [14C]estradiol at 0.3 uM after 7 hrs
Each record here notes measured inhibition.
Note: unit % is implicit; provide only the numeric part.

Compound: CCCCCCCCCCN(C(=O)c1cccc(CCl)c1)[C@H]1CC[C@H]2[C@@H]3CC[C@H]4N(C)C(=O)CC[C@]4(C)[C@H]3CC[C@]12C
Assay target: 3-keto-steroid reductase/17-beta-hydroxysteroid dehydrogenase 7 (Homo sapiens)
Unit tag: %
inhibition: 30

Compound: COc1cc2c(cc1S(N)(=O)=O)CC[C@@H]1[C@@H]2CC[C@@]2(C)[C@H]1CCC2(O)Cc1ccc(C(C)(C)C)cc1 (some centres not stated)
Assay target: 3-keto-steroid reductase/17-beta-hydroxysteroid dehydrogenase 7 (Homo sapiens)
Unit tag: %
inhibition: 0

Compound: CCOc1ccc2c(c1)CC[C@@H]1[C@@H]2CC[C@@]2(C)[C@H]1CC[C@@]21CCC(C)(C)C(=O)O1
Assay target: 3-keto-steroid reductase/17-beta-hydroxysteroid dehydrogenase 7 (Homo sapiens)
Unit tag: %
inhibition: 20.6

The reported value for CCCCCCCN(Cc1ccccc1)[C@H]1CC[C@H]2[C@@H]3CC[C@H]4N(C)C(=O)CC[C@]4(C)[C@H]3CC[C@]12C in terms of inhibition is 69

The reported value for C[C@]12CC[C@@H]3c4ccc(O)cc4CC[C@H]3[C@@H]1CC[C@@H]2O in terms of inhibition is 1.1

The reported value for C[C@]12CC[C@H]3[C@@H](CCC4=CC(=O)CC[C@@]43C)[C@@H]1CC[C@@H]2C(=O)CO in terms of inhibition is 11.2

The reported value for CCCCCCCN(C(=O)c1c(F)cccc1F)[C@H]1CC[C@H]2[C@@H]3CC[C@H]4N(C)C(=O)CC[C@]4(C)[C@H]3CC[C@]12C in terms of inhibition is 84

###

Assay target: 3-keto-steroid reductase/17-beta-hydroxysteroid dehydrogenase 7 (Homo sapiens) (UniProt P56937)
Assay conditions: HEK293, at 3 µM
Measured property: inhibition (%)
Note: unit % is implicit; provide only the numeric part.

Compound: CC1(C)CC[C@@]2(CC[C@H]3[C@@H]4CCc5cc(O)c(I)cc5[C@H]4CC[C@@]32C)OC1=O
Measured property: inhibition
Unit tag: %
Result value: 24.9

Compound: CCS(=O)(=O)Oc1ccc2c(c1)CC[C@@H]1[C@@H]2CC[C@@]2(C)[C@H]1CC[C@@]21CCC(C)(C)C(=O)O1
Measured property: inhibition
Unit tag: %
Result value: 60.9

Compound: CC(=O)C1CC[C@@]2(CC[C@H]3[C@@H]4CCc5cc(O)ccc5[C@H]4CC[C@@]32C)OC1=O (stereo partly specified)
Measured property: inhibition
Unit tag: %
Result value: 14.8

Compound: C[C@]12CCC(=O)C[C@@H]1CC[C@@H]1[C@@H]2CC[C@@]2(C)[C@H]1CC[C@@]21CCCC(=O)O1
Measured property: inhibition
Unit tag: %
Result value: 30.9

Compound: CCCCCN(C=O)[C@H]1CC[C@H]2[C@@H]3CC[C@H]4NC(=O)CC[C@]4(C)[C@H]3CC[C@]12C
Measured property: inhibition
Unit tag: %
Result value: 89.1

The reported value for C[C@]12CC[C@@H](O)C[C@@H]1CC[C@@H]1[C@@H]2CC[C@]2(C)C(=O)CC[C@@H]12 in terms of inhibition is 2.2

The reported value for CC(C)(C#N)c1cc(Cn2cncn2)cc(C(C)(C)C#N)c1 in terms of inhibition is 0.3

All figures here come from ChEMBL document CHEMBL1154295.
